- assayedTarget: T1, DIP1-c (Disconnected Interacting Protein 1, longest isoform) (Drosophila melanogaster, UniProt C6TP62 1-410)
- T1 sequence: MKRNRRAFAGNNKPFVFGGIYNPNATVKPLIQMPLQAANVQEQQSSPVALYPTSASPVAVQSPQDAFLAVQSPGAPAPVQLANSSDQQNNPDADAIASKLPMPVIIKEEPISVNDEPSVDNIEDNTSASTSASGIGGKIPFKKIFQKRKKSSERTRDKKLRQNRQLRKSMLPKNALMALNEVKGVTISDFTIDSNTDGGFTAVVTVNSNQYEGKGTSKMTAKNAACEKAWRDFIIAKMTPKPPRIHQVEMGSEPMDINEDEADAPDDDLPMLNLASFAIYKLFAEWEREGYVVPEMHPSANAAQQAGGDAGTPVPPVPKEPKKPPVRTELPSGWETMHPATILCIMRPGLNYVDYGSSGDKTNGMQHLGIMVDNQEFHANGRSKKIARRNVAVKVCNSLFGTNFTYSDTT
- assayName: EMSA
readoutName: Kd (nM)
I only need the number, in nM, no unit after it.

Q: Please look up its Kd: dsDNA40 (dsDNA) DNA 1: CCGGGCTGCACATGGTTAATGGCCAGTCCACGCGTAGATC DNA 2: GATCTACGCGTGGACTGGCCATTAACCATGTGCAGCCCGG
Result: 26
